Where do the numbers come from? From patent US20220162261A1.

testedTarget: T1, rh integrin α4β7 (R&D Systems #5397-A30) (human, UniProt P13612 34-970; P26010 20-723)
T1 construct: bought; coated on a nickel coated plate; also called immobilized α4β7; immobilized α4β7 integrin protein
testName: competition ELISA vs MAdCAM-1
pIC50: −log10 of the molar value. Bridge positions count the residues as written; N and C are the ends. Square brackets hold non-standard residues; d marks the D form. NMeR = CN[C@@H](CCCNC(=N)N)C(=O)O; hPhe = N[C@@H](CCc1ccccc1)C(=O)O; Pen = CC(C)(S)[C@H](N)C(=O)O; βAla = NCCC(=O)O
reportedMetric: pIC50

[
  {
    "binder": "Ac-[Pen][NMeR]SDTL[Pen][hPhe][dE][dK]-NH2 (disulfide 1-7; not fully specified (residue 10); printed as (Ac Pen N-Me-R S D T L Pen HPhe e k NH2)2 DIG, disulfide Pen-Pen; also: dimer, two subunits joined by DIG linker) [SEQ ID NO: 40]",
    "reportedMetric": "pIC50",
    "measuredValue": "≥ 8.00"
  },
  {
    "binder": "Ac-[Pen][NMeR]SDTL[Pen]WE[dK]-NH2 (disulfide 1-7; not fully specified (residue 10); printed as (Ac Pen N-Me-R S D T L Pen W E k NH2)2 DIG, disulfide Pen-Pen; also: homodimer via DIG linker, also called Peptide Z) [SEQ ID NO: 67]",
    "reportedMetric": "pIC50",
    "measuredValue": "≥ 8.00"
  },
  {
    "binder": "H-[βAla][Pen][NMeR]SDTL[Pen]WE-NH2 (disulfide 2-8; SMILES CC(C)C[C@@H]1NC(=O)[C@H]([C@@H](C)O)NC(=O)[C@H](CC(=O)O)NC(=O)[C@H](CO)NC(=O)[C@H](CCCNC(=N)N)N(C)C(=O)[C@@H](NC(=O)CCN)C(C)(C)SSC(C)(C)[C@@H](C(=O)N[C@@H](Cc2c[nH]c3ccccc23)C(=O)N[C@@H](CCC(=O)O)C(N)=O)NC1=O) [SEQ ID NO: 52]",
    "reportedMetric": "pIC50",
    "measuredValue": "< 8.00"
  }
]
